As shown below, each of these compounds has a reported pKi value.
Biological target: BRD4 BD2 protein (Homo sapiens (Human), UniProt O60885)
Experiment: Fluorescence polarization binding affinity (Ki) with BRD4 BD2 protein
Settings: fluorescence polarization; Ki calculated from IC50
// field semantics: pKi = negative decimal log of concentration (mol/L)

INSERT INTO assay_data (compound, quantity_kind, observed_measurement) VALUES
  ('CCN1CCC(c2ccc3c(c2)C(Nc2cccc(Cl)c2)CCn2nnc(C)c2-3)CC1 (centres unmarked) [RD142, 2,2,2-trifluoroacetate]', 'pKi', 6.71),
  ('CCN1CC=C(c2ccc3c(c2)C(Nc2cccc(C#N)c2)CCn2nnc(C)c2-3)CC1 (centres unmarked) [BI37, 2,2,2-trifluoroacetate]', 'pKi', 6.71),
  ('COC(=O)c1cccc(NC2CCn3nnc(C)c3-c3ccc(-c4cnn(C)c4)cc32)c1 (centres unmarked)', 'pKi', 7.75),
  ('COc1ccc(NC2CCn3nnc(C)c3-c3ccc(C4=CCNCC4)cc32)cc1 (centres unmarked) [LC160, 2,2,2-trifluoroacetate]', 'pKi', 6.94),
  ('Cc1nnn2c1-c1ccc(-c3cnc4[nH]cnc4c3)cc1C(Nc1ccc(Cl)cc1)CC2 (centres unmarked)', 'pKi', 7.85);

Request: Would you kindly share the measured pKi for Cc1nnn2c1-c1ccc(-c3ccncc3)cc1C(Nc1ccc(Cl)cc1)CC2 (centres unmarked) ?
Result: 7.77

Request: Follow-up entry: Cc1nnn2c1-c1ccc(C3=CCNCC3)cc1C(Nc1cc(F)cc(Cl)c1)CC2 (centres unmarked) [BH06, 2,2,2-trifluoroacetate]
Result: 7.45

Reference source for all entries: patent US12286435B2
